# Test protocol: Bioavailability study in dogs (oral capsule formulations; intraduodenal non-aqueous solution)
# Format: in vivo, male beagle dogs
# Cond: dog, plasma, po, dog; oral capsule with 0.5% Tween 80 & 2 MEq NMG (also some microcrystalline cellulose, lactose, starch); read-out: Mean % Oral Bioavailability ± SD
Result type: bioavailability (%)
Give the value, in units of %, as a plain number.

Consider the compound CCCCn1ncc(/C=C(\Cc2cc3c(cc2OC)CCO3)C(=O)O)c1-c1ccc(Cl)cc1OCc1ccccc1C(=O)O and give its measured bioavailability.
6.3

###

# Test protocol: Bioavailability study in dogs (oral capsule formulations; intraduodenal non-aqueous solution)
# Type: in vivo, male beagle dogs
# Cond: dog, plasma, po, 10 mg/kg, dogs; oral dosing of a simple capsule formulation; read-out: oral bioavailability
Result type: bioavailability
// return the numeric value with its unit appended

Request the reported bioavailability associated with CCCCn1ncc(/C=C(\Cc2cc3c(cc2OC)CCO3)C(=O)O)c1-c1ccc(Cl)cc1OCc1ccccc1C(=O)O [Diacid]
3.9%

###

# Test protocol: Enterohepatic extraction ratio and theoretical maximum oral bioavailability
# Type: in vivo
# Cond: dog, in vivo; dogs
Result type: hepatic extraction ratio
// response body must contain only the number

Requested read-out: hepatic extraction ratio. Entry: CCCCn1ncc(/C=C(\Cc2cc3c(cc2OC)CCO3)C(=O)O)c1-c1ccc(Cl)cc1OCc1ccccc1C(=O)O [Diacid]
0.82

###

# Test protocol: Bioavailability study in dogs (oral capsule formulations; intraduodenal non-aqueous solution)
# Assay type: in vivo, male beagle dogs
# Cond: dog, plasma, po, dog; oral capsule with 0.5% Tween 80 (also some microcrystalline cellulose, lactose, starch); read-out: Mean % Oral Bioavailability ± SD
Result type: bioavailability (%)
The reply should contain only the number, in %.

Would you mind telling me what bioavailability value was observed for CCCCn1ncc(/C=C(\Cc2cc3c(cc2OC)CCO3)C(=O)O)c1-c1ccc(Cl)cc1OCc1ccccc1C(=O)O ?
2.3

###

# Test protocol: Aqueous solubility under acidic conditions
# Type: physicochemical
# Cond: water, pH<5.34
Result type: solubility

What value of measured solubility is listed for CCCCn1ncc(/C=C(\Cc2cc3c(cc2OC)CCO3)C(=O)O)c1-c1ccc(Cl)cc1OCc1ccccc1C(=O)O [Diacid] ?
< 0.1 µg/mL

###

# Test protocol: Bioavailability study in dogs (oral capsule formulations; intraduodenal non-aqueous solution)
# Type: in vivo, male beagle dogs
# Cond: dog, plasma, dog; non-aqueous solution (99% PEG 400, 1% DMSO) dosed intraduodenally; only 2 animals; read-out: Mean % Oral Bioavailability ± SD
Structures can show the parent of a compound that is named as a salt.
Result type: bioavailability (%)
Use % as the unit, but write only the number.

Given the entry CCCCn1ncc(/C=C(\Cc2cc3c(cc2OC)CCO3)C(=O)O)c1-c1ccc(Cl)cc1OCc1ccccc1C(=O)O [Disodium Salt] , report its measured bioavailability.
14.5
